# study-system: farnesyl protein transferase (FPT), partially purified from rat brain (Rattus norvegicus, UniProt Q02293+Q04631)
# Construct: were partially purified from rat brain by ammonium sulfate fractionation followed by Q-Sepharose
# experimental-protocol: Inhibition of farnesyl protein transferase (transfer of [3H]farnesyl to Ras-CVLS)
# Format: biochemical
# experimental-context: enzyme inhibition; read-out: FPT IC50
pIC50: −log10 of the molar value.
metric-name: pIC50

(P) O=C(Cc1cc[n+]([O-])cc1)N1CCC(=C2c3ccc(Cl)cc3C=Cc3cccnc32)CC1
(Q) Cc1ccc2c(c1)CCc1cccnc1C2=C1CCN(C(=O)Cc2ccncc2)CC1
(R) O=C(Cc1ccncc1)N1CCC(=C2c3ccc(Cl)cc3CCc3ccc(O)nc32)CC1
Order the entries by their reported pIC50, beginning at the minimum. Sort the labels as requested; that list is your answer. R, P, Q
(R: 5.22, P: 6.07, Q: 6.59)

(a) O=C(Nc1ccccc1)N1CCC(=C2c3ccc(Cl)cc3CCc3c2ncc(Br)c3Cl)CC1
(b) O=C1CCC(C(=O)N2CCC(=C3c4ccc(Cl)cc4CCc4cccnc43)CC2)CC1
Returns the identifier with the smallest measured pIC50 among a and b . Label of pick, please. b
(b: 5.77, a: 6.05)

====

# study-system: farnesyl protein transferase (FPT), partially purified from rat brain (Rattus norvegicus, UniProt Q02293+Q04631)
# Construct: were partially purified from rat brain by ammonium sulfate fractionation followed by Q-Sepharose
# experimental-protocol: Inhibition of farnesyl protein transferase (transfer of [3H]farnesyl to Ras-CVLS)
# Format: biochemical
# experimental-context: Ras-CVLS farnesylation, partially purified rat brain FPT; read-out: FPT IC50
pIC50: −log10 of the molar value.
metric-name: pIC50

[[record]]
molecule = "O=C(Cc1cccnc1)N1CCC(=C2c3ccc(Cl)cc3CCc3c(SCc4ccccc4)ccnc32)CC1 [Example 258]"
metric_name = "pIC50"
recorded_number = 4.97

[[record]]
molecule = "CN1CCC(CC(=O)N2CCC(=C3c4ccc(Cl)cc4CCc4cc(Br)cnc43)CC2)CC1 [Example 400-H]"
metric_name = "pIC50"
recorded_number = 6.62

[[record]]
molecule = "O=C(CCCc1ccccc1)N1CCC(=C2c3ccc(Cl)cc3CCc3cccnc32)CC1 [Example 11]"
metric_name = "pIC50"
recorded_number = 5.37


(A) O=C(O)c1ccc(C(=O)N2CCC(=C3c4ccc(Cl)cc4CCc4cccnc43)CC2)cc1 [Example 106]
(B) CC(=O)N1CCC(=C2c3ccc(Cl)cc3CCc3cc(C)cnc32)CC1 [Example 64]
Select the item with the higher value of pIC50 from the options A and B listed. Reply briefly: the label of your chosen item. A

(P) CC(=O)N1CCC(CC(=O)N2CCN([C@@H]3c4ccc(Cl)cc4CCc4cccnc43)CC2)CC1 [225 (5.98)]
(Q) O=C(c1ccoc1)N1CCC(=C2c3ccc(Cl)cc3CCc3cccnc32)CC1 [Example 55]
(R) O=C(Nc1ccccc1)N1CCN(C2c3ccc(Cl)cc3CCc3cccnc32)CC1 (stereo not drawn) [Example 182]
Sort the molecules on pIC50; start with the lowest figure. Your task in answering is to list the labels in the requested order. Q, P, R
(Q: 5.23, P: 5.46, R: 5.96)

(1) C[C@H](N)C(=O)N1CCC(CC(=O)N2CCN(C3c4ccc(Cl)cc4CCc4cccnc43)CC2)CC1 (stereo partly drawn) [Example 433]
(2) O=C(c1cnc(O)nc1O)N1CCC(=C2c3ccc(Cl)cc3CCc3cccnc32)CC1 [Example 33]
(3) CC(C)(C)OC(=O)NCC(=O)N1CCN(C2c3ccc(Cl)cc3CCc3cccnc32)CC1 (stereo not drawn) [Example 208]
Write the entries in order, lowest recorded pIC50 first. # respond with the labels, arranged in the requested order 2, 3, 1
(2: 5.06, 3: 5.32, 1: 5.60)

(P) O=C(Nc1ccncc1)N1CCC(C2c3ccccc3CCc3cccnc32)CC1 (stereo not drawn) [Example 366]
(Q) O=C(C(=O)N1CCC(=C2c3ccc(Cl)cc3CCc3cccnc32)CC1)c1c[nH]c2ccccc12 [Example 219]
Lab log: flag the item ( P or Q ) with the smaller pIC50 figure. The response must carry the label of the picked entry. Q
(Q: 5.18, P: 5.40)

(A) O=C(Cc1ccncc1)N1CCC(C2c3ccc(Cl)cc3C([N+](=O)[O-])=Cc3cccnc32)CC1 (stereo not drawn) [Example 410-L]
(B) CC(C)(C)OC(=O)NCC(=O)N1CCC(=C2c3ccc(Cl)cc3CCc3cccnc32)CC1 [Example 112]
Pick one: A or B . Which one has the lower reported pIC50? In your reply, give the label of the chosen option. B
(B: 5.06, A: 5.54)
